# System: Human papillomavirus type 1a E7 protein (residues 1-88)
# assay.text: HPV1a E7 small-molecule binders, primary screen, biochemical, small-molecule microarray, residues 1-88, 635 nm (AID 1129)
# study.conditions: small-molecule microarray binding, fluorescence 635 nm; higher = more signal
readout.name: composite z-score
Number, no unit, nothing else.

Value of composite z-score reported for the compound COc1cc2c(cc1O)C(C1CC1)N(C)CC2 (stereo not given) is -2.06

// composite z-score lookup, compound = CCCCCN1CC=CC23O[C@@H]4C=CCCOC(=O)C4[C@H]2C(=O)N(CCCCCCO)[C@@H]3C1=O (stereo not given in full) , result: -0.0566

The compound identified as CC1=C2[C@@H](CCc3ccccc3)OB(O)C[C@@H]2[C@@H]2C(=O)N(C)C(=O)[C@@H]2C1 registered its composite z-score at 0.591

Measured composite z-score, CCCCNC(=O)c1ccc(C#CC(C)(C)C)c(OC(C)=O)c1 : 0.712

Item: Cc1ccc(S[C@]2(C(=O)NC(C)C)CC(=O)N(Cc3cc(C(F)(F)F)cc(C(F)(F)F)c3)[C@@H]2c2ccc(CO)cc2)cc1 | composite z-score: -0.629

# composite z-score (compound: CCOC(=O)C[C@H]1[C@H](OC(=O)Cc2ccc3c(c2)OCO3)[C@@H](NC(=O)C2CCCCC2)c2cc(OCCCO)ccc2N1C(=O)c1ccccc1 ) is -0.0497

composite z-score measured on O=C1OCCC=C[C@H]2OC34C=CCN(c5ccc6ccccc6c5)C(=O)[C@H]3N(CCCO)C(=O)[C@@H]4C12 (stereo not given in full) = -2.27

Sure, the documented composite z-score for CC(C)C(O)C1C=CC2C(=O)N(c3ccccc3)C(=O)C2N1Nc1ccccc1 (stereo not given) is 1.29

composite z-score measured on [N-]=[N+]=Nc1ccccc1C[C@@]1(C(N)=O)N=C(c2ccc(OCCCO)cc2)O[C@@H]1c1ccccc1N=[N+]=[N-] = 1.23

# compound Cc1ccc(S[C@]2(C(=O)NCC(F)(F)F)CC(=O)N(Cc3cc(C(F)(F)F)cc(C(F)(F)F)c3)[C@@H]2c2ccc(CO)cc2I)cc1 ; its composite z-score = -0.698

So, CC(=O)N1CC2(CC2)CC1c1ccccc1 (stereo not given) ? Its composite z-score was 0.678

The compound identified as N#Cc1ccc(NN2C(C(O)c3ccc(Br)cc3)C=CC3C(=O)N(c4ccccc4)C(=O)C32)cc1 (stereo not given) registered its composite z-score at 1.18

Entry under test: COC(=O)C1=CC(CCCO)=CC(c2ccc(CN3CCCC3)cc2)N(Cc2cccc(OC(F)(F)F)c2)C=C1C(=O)OC (stereo not given) . Its composite z-score was 1.11

Documented composite z-score of CC[C@@H]1C=C(C(=O)O)[C@H](c2ccc(C#N)cc2)N1S(=O)(=O)c1ccc(C)cc1 : 0.845

Measured composite z-score of NC(=O)[C@H]1[C@@H]2C(=O)O[C@@H](c3ccccc3)[C@@H](c3ccccc3)N2[C@@H](c2ccc(OCCO)cc2)[C@]12C(=O)Nc1ccc(C#CCCO)cc12 : 1.18

Query CCCC1(C(=O)OC)C=C2C(=C(C)C(=O)C2C)CN1 (stereo not given) yields composite z-score of -0.0152

Briefly, composite z-score measured for COC(=O)[C@@]1(Cc2ccccc2)[C@H]2c3cc(C(=O)N(C)C)n(Cc4ccc(C)o4)c3C[C@H]2CN1C(=O)c1ccccc1 : 1.21

Note to self: composite z-score recorded for C[N+](C)(C)CCCCCCNC(=O)[C@@H]1C[C@@H]2C(=O)N3CCC[C@H]3C(=O)N2[C@@H]1c1ccc(O)cc1 was 0.451

Memo: CCCC=C(CCC)[C@@H](NP(=O)(c1ccccc1)c1ccccc1)c1ccc(-c2ccccc2)cc1 , reported composite z-score: 1.21

Please fill in: composite z-score reported for CCOC(=O)C[C@H]1[C@H](OC(=O)c2cc3ccccc3oc2=O)[C@@H](NC(=O)c2ccc3ccccc3n2)c2cc(OCCCO)ccc2N1C(=O)Cc1ccc(OC)cc1 = 1.18

// recorded composite z-score for CCCNC(=O)[C@@H]1c2ccccc2C(=O)N(Cc2ccc(OC(F)(F)F)cc2)[C@H]1c1ccc(CO)cc1 : 0.907

Kindly note the recorded composite z-score for CCOC(=O)C=Cc1cccc(C)c1O , which is -0.0448

Recorded result, NCCCCCCNC(=O)[C@@H]1C[C@@H]2C(=O)N[C@@H](CCCCN)C(=O)N2[C@@H]1c1ccc(O)cc1 , composite z-score: 0.153

The recorded composite z-score for entry COCCOC(=O)N1C(=O)[C@@]2(c3cc(C#CCNC(N)=O)ccc31)[C@H](C(N)=O)[C@H]1C(=O)O[C@H](c3ccccc3)[C@H](c3ccccc3)N1[C@@H]2c1ccccc1OCCO equals 0.956

Field composite z-score (entry CCCC=C(CCC)[C@@H](NS(=O)(=O)c1ccc(C(F)(F)F)cc1)c1ccccc1 ) reads 0.887

Given item C=CCNC(=O)[C@@H]1[C@H]2C(=O)O[C@H](c3ccccc3)[C@H](c3ccccc3)N2[C@H](c2ccccc2OCCO)[C@@]12C(=O)Nc1ccc(C#CCC(C(=O)OC)C(=O)OC)cc12 , the value recorded as its composite z-score is 1.2

Record C=CCC(OC(C)=O)[C@@H]1[C@@H](N(Cc2cc3ccccc3o2)C(=O)Cc2ccc(F)cc2)c2cc(OCCCO)ccc2N1C(=O)Cc1ccc2ccccc2c1 (stereo not given in full) . Reported composite z-score: -0.682

Looking up CO[C@H]1O[C@H](CO)[C@@H](OC(=O)Nc2ccccc2)[C@H](OC(=O)c2cc3ccccc3[nH]2)[C@H]1OC(=O)c1cc2ccccc2[nH]1 , I see its composite z-score listed as 0.181

Looking up COCCOC(=O)N1C(=O)[C@@]2(c3cc(C#CCC(C(=O)OC)C(=O)OC)ccc31)[C@H](c1ccc(OCCO)cc1)N1[C@H](c3ccccc3)[C@H](c3ccccc3)OC(=O)[C@H]1[C@@H]2C(=O)N1CCc2cc(OC)c(OC)cc2C1 , I see its composite z-score listed as 1.22

Data point: O=C1C2C=CC(C(O)c3ccco3)N(Nc3ccccc3F)C2C(=O)N1c1ccccc1 (stereo not given) ; composite z-score = 0.512
